This listing pairs compounds with measured Ki.
# Subject Of Test: Xa (Homo sapiens, UniProt P00742)
# Sequence (P00742 235-488 limits assumed): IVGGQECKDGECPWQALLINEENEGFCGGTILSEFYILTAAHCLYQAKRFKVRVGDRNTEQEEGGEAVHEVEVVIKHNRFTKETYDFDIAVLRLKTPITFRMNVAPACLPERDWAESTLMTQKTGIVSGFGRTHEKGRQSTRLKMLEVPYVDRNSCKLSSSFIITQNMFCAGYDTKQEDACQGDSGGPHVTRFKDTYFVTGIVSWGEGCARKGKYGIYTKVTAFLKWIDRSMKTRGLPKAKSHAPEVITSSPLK
# Sequence (P00742 41-179 limits assumed): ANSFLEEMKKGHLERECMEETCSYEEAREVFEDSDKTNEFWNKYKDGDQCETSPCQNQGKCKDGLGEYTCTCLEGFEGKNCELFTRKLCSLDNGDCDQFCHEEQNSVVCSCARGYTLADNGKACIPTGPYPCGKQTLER

Entry N=C(N)c1ccc(CNC(=O)[C@H](CCc2ccc(CN)cc2)NC(=O)[C@@H](CCCc2ccccc2)NS(=O)(=O)Cc2ccccc2)cc1 ; Ki = < 1000 nM

Entry N=C(N)c1ccc(CNC(=O)[C@H](CCc2ccccc2)NC(=O)[C@@H](CCc2ccc(O)cc2)NS(=O)(=O)Cc2ccccc2)cc1 ; Ki = < 10 nM

Entry N=C(N)c1ccc(CNC(=O)[C@H](Cc2ccc(CN)cc2)NC(=O)[C@@H](CCCc2ccccc2)NS(=O)(=O)Cc2ccccc2)cc1 ; Ki = < 1000 nM

Entry N=C(N)c1ccc(CNC(=O)[C@H](CCc2ccccc2)NC(=O)[C@@H](CCCc2ccccc2)NS(=O)(=O)Cc2ccccc2)cc1 ; Ki = < 1000 nM

Entry CC(C)(C)OC(=O)NCCCC[C@@H](NS(=O)(=O)Cc1ccc(C(=O)O)cc1)C(=O)N[C@@H](Cc1cccc(CN)c1)C(=O)NCc1ccc(C(=N)N)cc1 ; Ki = < 1000 nM

Entry N=C(N)c1ccc(CNC(=O)[C@H](Cc2ccc(C(=N)N)cc2)NC(=O)[C@@H](CO)NS(=O)(=O)Cc2ccccc2)cc1 ; Ki = > 1000 nM

Entry N=C(N)c1ccc(CNC(=O)[C@H](CCc2ccncc2)NC(=O)[C@@H](CCc2ccc(O)cc2)NS(=O)(=O)Cc2ccccc2)cc1 ; Ki = < 10 nM

Entry N=C(N)c1ccc(CNC(=O)[C@H](Cc2cccc(CN)c2)NC(=O)[C@@H](CN)NS(=O)(=O)Cc2ccccc2)cc1 ; Ki = > 1000 nM

Entry N=C(N)c1ccc(CNC(=O)[C@H](Cc2cccc(CN)c2)NC(=O)[C@@H](CCCc2ccccc2Cl)NS(=O)(=O)Cc2ccccc2)cc1 ; Ki = < 100 nM

Entry N=C(N)c1ccc(CNC(=O)[C@H](Cc2cccc(CN)c2)NC(=O)[C@@H](CCCc2ccc(OC(F)(F)F)cc2)NS(=O)(=O)Cc2ccccc2)cc1 ; Ki = < 100 nM

Others:
Entry N=C(N)c1ccc(CNC(=O)[C@H](Cc2cccc(CN)c2)NC(=O)[C@@H](CO)NS(=O)(=O)Cc2ccccc2)cc1 ; Ki = > 1000 nM

Entry COc1ccc(CCC[C@@H](NS(=O)(=O)Cc2ccccc2)C(=O)N[C@@H](Cc2cccc(CN)c2)C(=O)NCc2ccc(C(=N)N)cc2)cc1 ; Ki = < 100 nM
